# tested-target: T1, human BTLA(ECD)-HIS (human, UniProt Q7Z6A9 31-157)
# T1 construct: extracellular domain; also called recombinant BTLA; not shown: HIS tag
# assay: ELISA, coated BTLA(ECD)-HIS, chemiluminescence (RLU)
metric: EC50
Please don't drop the unit; write it after the number.

Worked examples follow.
>>> value("anti-BTLA antibody 16-I20A (antibody, V domains shown, also called 16420A) VH: QVQLQESGPGLVKPSETLSLTCTVSGGSISYYYWSWIRQPPGTGLEWIGYIYYSGSTKYNPSLKRRVTISVDTSKNQFSLKLSSVTAADTAVYYCARIRGDSYGWDFDYWGQGTLVTVSS VL: EIVMTQSPATLSLSPGERATLSCRASQSISNNYLFWYQQKPGQAPRLLIYGASTRATGIPARFSGSGSGTDFTLTISSLQPEDFAVYYCQQDYNFPLTFGGGTKVEIK")
"0.7 nM"
>>> value("anti-BTLA antibody 13-F7A (antibody, V domains shown) VH: EVQLLESGGGLVQPGGSLRLSCAASGFTSSSYGMSWVRQAPGKGLEWVSGISGSGGGTYYADSVKGRFTISRDNSKNTLYLQMNSLRAEDTAVYYCAKGDYYGSGSYPLFDYWGQGTLVTVSS VL: AIQLTQSPSSLSASVGDRVTITCRASQDISSALAWYQQKPGKAPKLLISDASSLESGVPSRFSGSGSGTDFTLTISSLQPEDFATFYCQQFNNYPPTFGPGTKVDIK")
"1 nM"
>>> value("anti-BTLA antibody 16-H16A (antibody, V domains shown) VH: QLQLQESGPGLVKPSETLSLTCTVSGDSISSSGYYWGWIRQPPGKGLEWIGSIYYSGSTHYNPSLKSRVTISVDSSKSQFSLKLSSVTAADTAVYCCARHKVDSSGWPLDYWGQGTLVTVSS VL: EIVMTQSPATLSLSPGERATLSCRASQSISSSCLSWYQQKPGQAPRLLIYDTSTRATGIPARFSGSGSGTDFTLTISSLQPEDFAVYYCQQDYNLPLTFGGGTKVEIK")
"0.9 nM"

Asked: Give the value of EC50 reported for the following: anti-BTLA antibody 8-M23A (antibody, V domains shown) VH: QVQLQESGPGLVKPSETLSLTCTVSGGSISSYYWSWIRQPPGKGLEWIGYIYYSGSTNYNPSLKSRITISVDTSKNQFSLKLSSVTAADTAVYYCARVILYSSGWSFDYWGQGTLVTVSS VL: EIVMTQSPATLSLSPGERATLSCRASQSVSSSYLSWYQQKPGQAPRLLIYGASTRATGIPARFSGSGSGTDFTLTISSLQPEDFAVYYCQQDYNLPLTFGGGTKVEIK
Given back: 0.8 nM
